Sourced from patent US7968548B2

molecular target: hMC1-R (Homo sapiens, UniProt Q01726); construct: expressed in transfected cells; host or cells: HEK-293; assay: Competitive inhibition binding assay using [I125]-NDP-α-MSH, HEK-293 membranes, recombinant hMC1-R; conditions: 1 μM compound, human recombinant MC1-R
Sequence (Q01726 whole entry): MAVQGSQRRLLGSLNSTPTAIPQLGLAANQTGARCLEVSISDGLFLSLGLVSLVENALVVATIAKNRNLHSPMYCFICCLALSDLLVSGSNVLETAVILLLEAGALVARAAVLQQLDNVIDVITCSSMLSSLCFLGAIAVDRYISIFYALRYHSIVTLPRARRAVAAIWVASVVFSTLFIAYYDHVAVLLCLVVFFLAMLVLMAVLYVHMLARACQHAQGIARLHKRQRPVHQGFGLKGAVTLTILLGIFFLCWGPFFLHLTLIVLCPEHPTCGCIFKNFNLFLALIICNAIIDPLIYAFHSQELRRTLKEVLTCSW
RESULT TYPE: inhibition at 1 µM (%)
Write the number in % without appending the unit.

Give me measured inhibition at 1 µM, please, for this molecule: Cc1ccc(C[C@@H](N)C(=O)N2C[C@H](CCCNCCN)N(C(=O)[C@H](N)Cc3ccc(C)cc3C)C[C@H]2CC2CCCCC2)c(C)c1
35

Give me measured inhibition at 1 µM, please, for this molecule: CC(C)C[C@@H]1CN(C(=O)[C@H](N)Cc2ccc3ccccc3c2)[C@@H](CCCNCCN)CN1C(=O)[C@H](N)Cc1ccc2ccccc2c1
40

Give me measured inhibition at 1 µM, please, for this molecule: Cc1ccc(C[C@@H](N)C(=O)N2C[C@@H](C)N(C(=O)[C@H](N)Cc3ccc(C)cc3C)C[C@@H]2CCCNCCN)c(C)c1
53

Give me measured inhibition at 1 µM, please, for this molecule: Cc1ccc(C[C@@H](N)C(=O)N2C[C@H](CCCNCCN)N(C(=O)[C@H](N)Cc3ccc(C)cc3C)C[C@H]2CC(C)C)c(C)c1
22

Give me measured inhibition at 1 µM, please, for this molecule: CC(C)C[C@@H]1CN(C[C@H](N)Cc2ccc(Cl)cc2Cl)[C@@H](CCCNCCCCN)CN1C(=O)Cc1ccc2ccccc2c1
37

Give me measured inhibition at 1 µM, please, for this molecule: C[C@@H]1CN(C(=O)[C@H](N)Cc2ccc(Cl)c(Cl)c2)[C@@H](CCCNCCN)CN1C(=O)[C@H](N)Cc1ccc(Cl)c(Cl)c1
77
